Experiment: Aqueous solubility in different cyclodextrin solutions (excess compound, shaken 24 hours, HPLC)
Assay type: physicochemical
Conditions: aqueous cyclodextrin solution, aqueous with cosolvent or surfactant or cyclodextrin, thermodynamic from solid, HPBCD 75 mg/ml, room temperature, read-out: Solubility in CD's solution (concentration of compound)
Protocol: In order to test the effect of various CDs on the aqueous solubility of compound IVE, 1 mL of each of the following aqueous solutions as described in Table 2 was prepared. […] Excess IVE was present in all samples at all times to obtain solubility. After 24-hours, the samples were centrifuged. […] The size of the compound may allow it to form an inclusion complex, resulting in a higher aqueous solubility. […]
Metric Name: solubility at 24 h (µg/mL)
Express it in µg/mL; write the number only.

In plain terms, Cc1cccc(COc2ccc(Sc3ccoc3C3NC(=O)NC3=O)cc2)c1 (stereo not shown) has a documented solubility at 24 h of 108

====

Assay: Solubility of compound IVO in solutions containing L-Arginine
Assay type: physicochemical
Details: aqueous L-Arginine solution in DI water, aqueous with cosolvent or surfactant or cyclodextrin, thermodynamic from solid, L-Arginine 2.5 % w/w in DI water
Metric Name: solubility at 24 h

In plain terms, Cc1cccc(COc2ccc(Sc3ccoc3C3NC(=O)NC3=O)cc2)c1 (stereo not shown) [IVO] has a documented solubility at 24 h of 85.8 µg/mL

====

Test: Aqueous solubility in different cyclodextrin solutions (excess compound, shaken 24 hours, HPLC)
Format: physicochemical
Conditions: aqueous cyclodextrin solution, aqueous with cosolvent or surfactant or cyclodextrin, thermodynamic from solid, MBCD 75 mg/ml, room temperature, read-out: Solubility in CD's solution (concentration of compound)
Metric Name: solubility at 24 h (µg/mL)
The figure you give is taken to be in µg/mL; do not add the unit.

Memo: Cc1cccc(COc2ccc(Sc3ccoc3C3NC(=O)NC3=O)cc2)c1 (stereo not shown) [IVO] , reported solubility at 24 h: 673

====

Provide the recorded solubility at 24 h for the entries that follow.
Assay: Aqueous solubility in different cyclodextrin solutions (excess compound, shaken 24 hours, HPLC)
Type: physicochemical
Conditions: aqueous cyclodextrin solution, aqueous with cosolvent or surfactant or cyclodextrin, thermodynamic from solid, HPBCD 100 mg/ml, room temperature, read-out: Solubility in CD's solution (concentration of compound)
Note: unit µg/mL is implicit; provide only the numeric part.

Query Cc1cccc(COc2ccc(Sc3ccoc3C3NC(=O)NC3=O)cc2)c1 (stereo not shown) [IVO] yields solubility at 24 h of 184

solubility at 24 h reading for O=C1NC(=O)C(c2occc2Sc2ccc(OCc3cccc(C(F)(F)F)c3)cc2)N1 (stereo not shown) [IVQ] : 1220

Record summary for Cc1ccccc1COc1ccc(Sc2ccoc2C2NC(=O)NC2=O)cc1 (stereo not shown) [IVP] : reported solubility at 24 h = 727

The reported value for COc1cccc(COc2ccc(Sc3ccoc3C3NC(=O)NC3=O)cc2)c1 (stereo not shown) [IVE] in terms of solubility at 24 h is 744

====

Exercise: for every item that follows, state its recorded solubility at 24 h.
Experiment: Aqueous solubility in different cyclodextrin solutions (excess compound, shaken 24 hours, HPLC)
Format: physicochemical
Conditions: aqueous cyclodextrin solution, aqueous with cosolvent or surfactant or cyclodextrin, thermodynamic from solid, ACD 40 mg/ml, room temperature, read-out: Solubility in CD's solution (concentration of compound)
Numbers only here, please. The scale is µg/mL.

Documented solubility at 24 h of Cc1cccc(COc2ccc(Sc3ccoc3C3NC(=O)NC3=O)cc2)c1 (stereo not shown) : 17

Reported solubility at 24 h ( COc1cccc(COc2ccc(Sc3ccoc3C3NC(=O)NC3=O)cc2)c1 (stereo not shown) ) = 53

Note to self: solubility at 24 h recorded for Cc1ccccc1COc1ccc(Sc2ccoc2C2NC(=O)NC2=O)cc1 (stereo not shown) was 15

Memo: O=C1NC(=O)C(c2occc2Sc2ccc(OCc3cccc(C(F)(F)F)c3)cc2)N1 (stereo not shown) , reported solubility at 24 h: 111

====

Assay: Aqueous solubility in different cyclodextrin solutions (excess compound, shaken 24 hours, HPLC)
Assay type: physicochemical
Conditions: aqueous cyclodextrin solution, aqueous with cosolvent or surfactant or cyclodextrin, thermodynamic from solid, MBCD 100 mg/ml, room temperature, read-out: Solubility in CD's solution (concentration of compound)
I'd appreciate it if you could supply solubility at 24 h values for the items below.
Don't forget the unit after the value.

Documented solubility at 24 h of COc1cccc(COc2ccc(Sc3ccoc3C3NC(=O)NC3=O)cc2)c1 (stereo not shown) : 3250 µg/mL

Form: compound = O=C1NC(=O)C(c2occc2Sc2ccc(OCc3cccc(C(F)(F)F)c3)cc2)N1 (stereo not shown) ; solubility at 24 h = 5780 µg/mL

Notebook: Cc1ccccc1COc1ccc(Sc2ccoc2C2NC(=O)NC2=O)cc1 (stereo not shown) , solubility at 24 h read as 6270 µg/mL

The value of solubility at 24 h measured for the compound Cc1cccc(COc2ccc(Sc3ccoc3C3NC(=O)NC3=O)cc2)c1 (stereo not shown) turned out to be 1070 µg/mL

====

Assay: Aqueous solubility in different cyclodextrin solutions (excess compound, shaken 24 hours, HPLC)
Assay type: physicochemical
Details: aqueous cyclodextrin solution, aqueous with cosolvent or surfactant or cyclodextrin, thermodynamic from solid, SBEBCD 150 mg/ml, room temperature, read-out: Solubility in CD's solution (concentration of compound)
Metric Name: solubility at 24 h (µg/mL)
API: value field is a number in µg/mL; no unit string.

Documented solubility at 24 h of Cc1cccc(COc2ccc(Sc3ccoc3C3NC(=O)NC3=O)cc2)c1 (stereo not shown) [IVO] : 315

====

Assay: Solubility of compound IVO in solutions containing L-Arginine
Type: physicochemical
Settings: DI water, water, thermodynamic from solid, L-Arginine 0 % w/w in DI water
Metric Name: solubility at 24 h (µg/mL)
Number only, in µg/mL; omit the unit.

# compound Cc1cccc(COc2ccc(Sc3ccoc3C3NC(=O)NC3=O)cc2)c1 (stereo not shown) [IVO] ; its solubility at 24 h = 1.15

====

Experiment: Aqueous solubility in different cyclodextrin solutions (excess compound, shaken 24 hours, HPLC)
Format: physicochemical
Conditions: aqueous cyclodextrin solution, aqueous with cosolvent or surfactant or cyclodextrin, thermodynamic from solid, HPBCD 200 mg/ml, room temperature, read-out: Solubility in CD's solution (concentration of compound)
Experimental: In order to test the effect of various CDs on the aqueous solubility of compound IVE, 1 mL of each of the following aqueous solutions as described in Table 2 was prepared. […] Excess IVE was present in all samples at all times to obtain solubility. After 24-hours, the samples were centrifuged. […] The size of the compound may allow it to form an inclusion complex, resulting in a higher aqueous solubility. […]
Metric Name: solubility at 24 h (µg/mL)
Quick reminder: number only, in µg/mL, skip the unit.

Kindly note the recorded solubility at 24 h for Cc1cccc(COc2ccc(Sc3ccoc3C3NC(=O)NC3=O)cc2)c1 (stereo not shown) , which is 467

====

Experiment: Aqueous solubility in different cyclodextrin solutions (excess compound, shaken 24 hours, HPLC)
Type: physicochemical
Conditions: aqueous cyclodextrin solution, aqueous with cosolvent or surfactant or cyclodextrin, thermodynamic from solid, HPGCD 25 mg/ml, room temperature, read-out: Solubility in CD's solution (concentration of compound)
Metric Name: solubility at 24 h (µg/mL)
Give just the numeric value; µg/mL need not be written.

solubility at 24 h reported for this molecule Cc1cccc(COc2ccc(Sc3ccoc3C3NC(=O)NC3=O)cc2)c1 (stereo not shown) : 9

====

Assay: Aqueous solubility in different cyclodextrin solutions (excess compound, shaken 24 hours, HPLC)
Assay type: physicochemical
Conditions: aqueous cyclodextrin solution, aqueous with cosolvent or surfactant or cyclodextrin, thermodynamic from solid, MBCD 50 mg/ml, room temperature, read-out: Solubility in CD's solution (concentration of compound)
Metric Name: solubility at 24 h

// Cc1cccc(COc2ccc(Sc3ccoc3C3NC(=O)NC3=O)cc2)c1 (stereo not shown) : solubility at 24 h value = 477 µg/mL

====

Assay: Aqueous solubility in different cyclodextrin solutions (excess compound, shaken 24 hours, HPLC)
Type: physicochemical
Conditions: aqueous cyclodextrin solution, aqueous with cosolvent or surfactant or cyclodextrin, thermodynamic from solid, HPGCD 200 mg/ml, room temperature, read-out: Solubility in CD's solution (concentration of compound)
Metric Name: solubility at 24 h (µg/mL)
Give just the number in µg/mL; leave the unit off.

Value of solubility at 24 h reported for the compound Cc1cccc(COc2ccc(Sc3ccoc3C3NC(=O)NC3=O)cc2)c1 (stereo not shown) is 3

====

Would you kindly list solubility at 24 h for each of these compounds?
Assay: Aqueous solubility in different cyclodextrin solutions (excess compound, shaken 24 hours, HPLC)
Type: physicochemical
Details: aqueous cyclodextrin solution, water, thermodynamic from solid, SBEBCD 0 mg/ml, room temperature, read-out: Solubility in CD's solution (concentration of compound)
Reply numerically in µg/mL, unit not repeated.

Briefly, solubility at 24 h measured for Cc1cccc(COc2ccc(Sc3ccoc3C3NC(=O)NC3=O)cc2)c1 (stereo not shown) : 26

The reported solubility at 24 h of the compound O=C1NC(=O)C(c2occc2Sc2ccc(OCc3cccc(C(F)(F)F)c3)cc2)N1 (stereo not shown) was 138

Given item Cc1ccccc1COc1ccc(Sc2ccoc2C2NC(=O)NC2=O)cc1 (stereo not shown) , the value recorded as its solubility at 24 h is 64

So, COc1cccc(COc2ccc(Sc3ccoc3C3NC(=O)NC3=O)cc2)c1 (stereo not shown) ? Its solubility at 24 h was 23

The reported measurements were obtained from patent US11628220B2.
